Entries and their IC50 values follow.
biological target: RIPK3 (Homo sapiens (Human)); experiment: RIPK3 HTRF Kinase Assay; format: binding; conditions: RIPK3 1 nM; HTRF probe 23 nM; 60 min at room temperature; read-out: IC50 for Inhibition of RIPK3
readout_type: IC50

>>> experimental_result("O=C(Nc1cc(-c2c(-c3ccc(F)cc3)c3c(n2CC2CCOCC2)CCNC3=O)ccn1)c1ccncc1 [Example 85]")
"100 to 15000 nM"
>>> experimental_result("Cc1cc(Cn2c3c(c(-c4cccc(NC=O)c4)c2-c2ccncc2)C(=O)NCC3)n(C)n1 [Example 178]")
"100 to 15000 nM"
>>> experimental_result("O=C1NCCc2c1c(-c1ccc(F)cc1)c(-c1ccncc1)n2Cc1cc(F)cc(C(F)(F)F)c1 [Example 41]")
"< 30 nM"
>>> experimental_result("Cc1cc(-c2c(-c3ccc(F)cc3)c3c(n2Cc2ccc(F)cc2C#N)CCNC3=O)ccn1 [Example 20]")
"31 to 100 nM"
>>> experimental_result("CCC(=O)Nc1cc(-c2c(-c3ccc(F)cc3)c3c(n2Cc2ccc(C(F)(F)F)cc2F)CCNC3=O)ccn1 [Example 149]")
"31 to 100 nM"
>>> experimental_result("Cn1cc(-c2c(-c3ccc(F)cc3)c3c(n2Cc2ccc(F)cc2C#N)CCNC3=O)cn1 [Example 24]")
"100 to 15000 nM"
>>> experimental_result("CCC(=O)Nc1cc(-c2c(-c3ccc(F)cc3)c3c(n2CC2CCOCC2)CCNC3=O)ccn1 [Example 90]")
"100 to 15000 nM"
>>> experimental_result("CCC(=O)Nc1cccc(-c2c3c(n(Cc4cc(C)nn4C)c2-c2ccncc2)CCNC3=O)c1 [Example 179]")
"100 to 15000 nM"
>>> experimental_result("CC(=O)Nc1cc(-c2c(-c3ccc(F)cc3)c3c(n2Cc2ccc(C(F)(F)F)cc2)CCNC3=O)ccn1 [Example 102]")
"100 to 15000 nM"
>>> experimental_result("Nc1cc(-c2c(-c3ccc(F)cc3)c3c(n2Cc2ccc(C(F)(F)F)cc2F)CCNC3=O)ccn1 [Example 12]")
"100 to 15000 nM"
>>> experimental_result("N#Cc1cc(F)ccc1Cn1c2c(c(-c3ccc(F)cc3)c1-c1ccc3[nH]ccc3c1)C(=O)NCC2 [Example 19]")
"100 to 15000 nM"
>>> experimental_result("O=C1NCCc2c1c(-c1ccc(F)cc1)c(-c1ccncc1)n2CC1CCNCC1 [Example 30]")
"100 to 15000 nM"
>>> experimental_result("COc1ccc(CCn2c3c(c(-c4ccc(F)cc4)c2-c2ccncc2)C(=O)NCC3)cc1 [Example 37]")
"100 to 15000 nM"
>>> experimental_result("CC1(C)CNC(=O)c2c1[nH]c(-c1ccncc1)c2-c1ccc(F)cc1 [Example 153]")
"< 30 nM"
>>> experimental_result("Cn1ccnc1Cn1c2c(c(-c3ccc(F)cc3)c1-c1ccncc1)C(=O)NCC2 [Example 80]")
"100 to 15000 nM"
>>> experimental_result("O=C1NCCc2c1c(-c1ccc(F)cc1)c(-c1ccncc1)n2Cc1ccncc1 [Example 66]")
"< 30 nM"
>>> experimental_result("CC(=O)Nc1cc(-c2c(-c3ccc(F)cc3)c3c(n2Cc2ccc(F)c(C#N)c2)CCNC3=O)ccn1 [Example 99]")
"31 to 100 nM"
>>> experimental_result("N#Cc1cc(F)ccc1Cn1c2c(c(-c3ccc(F)cc3)c1-c1ccncc1F)C(=O)NCC2 [Example 27]")
"< 30 nM"
>>> experimental_result("N#CCCCn1c2c(c(-c3ccc(F)cc3)c1-c1ccncc1)C(=O)NCC2 [Example 59]")
"100 to 15000 nM"
>>> experimental_result("Cc1ccc(S(=O)(=O)n2c3c(c(-c4ccc(F)cc4)c2-c2ccncc2)C(=O)NCC3)cc1 [Example 162]")
"100 to 15000 nM"
>>> experimental_result("O=C1NCCc2c1c(-c1ccc(F)cc1)c(-c1ccncc1)n2Cc1ccncn1 [Example 72]")
"100 to 15000 nM"
>>> experimental_result("CC(C)NC(=O)Cn1c2c(c(-c3ccc(F)cc3)c1-c1ccncc1)C(=O)NCC2 [Example 83]")
"100 to 15000 nM"
>>> experimental_result("O=C1NCCc2c1c(-c1cccc(-c3ccccc3)c1)c(-c1ccncc1)n2CC1CCOCC1 [Example 5]")
"100 to 15000 nM"
>>> experimental_result("Cc1nc(Cn2c3c(c(-c4ccc(F)cc4)c2-c2ccncc2)C(=O)NCC3)cs1 [Example 60]")
"31 to 100 nM"
>>> experimental_result("CC(=O)Nc1cc(-c2c(-c3ccc(F)cc3)c3c(n2CC2CCOCC2)CCNC3=O)ccn1 [Example 3]")
"100 to 15000 nM"
>>> experimental_result("N#Cc1cc(F)ccc1Cn1c2c(c(-c3ccoc3)c1-c1ccncc1)C(=O)NCC2 [Example 141]")
"< 30 nM"
>>> experimental_result("Cn1ccc2cc(-c3c4c(n(Cc5ccc(F)cc5C#N)c3-c3ccncc3)CCNC4=O)ccc21 [Example 118]")
"31 to 100 nM"
>>> experimental_result("COc1ccc(C(=O)Nc2cc(-c3c(-c4ccc(F)cc4)c4c(n3CC3CCOCC3)CCNC4=O)ccn2)cc1 [Example 89]")
"100 to 15000 nM"
>>> experimental_result("N#Cc1cc(F)ccc1Cn1c2c(c(-c3ccc4ncccc4c3)c1-c1ccncc1)C(=O)NCC2 [Example 116]")
"100 to 15000 nM"
>>> experimental_result("COc1ccncc1-c1c2c(n(Cc3ccc(F)cc3C#N)c1-c1ccncc1)CCNC2=O [Example 131]")
"100 to 15000 nM"
>>> experimental_result("CC(C)(C)OC(=O)Nc1cccc(-c2c3c(n(Cc4ccc(Cl)cc4F)c2-c2ccncc2)CCNC3=O)c1 [Example 163]")
"31 to 100 nM"
>>> experimental_result("N#Cc1cc(F)ccc1Cn1c2c(c(-c3cccs3)c1-c1ccncc1)C(=O)NCC2 [Example 14]")
"< 30 nM"

----------
target: RIPK3 (Homo sapiens (Human), UniProt Q9Y572); assay: RIPK3 HTRF Kinase Assay; type: binding; conditions: RIPK3 1 nM; HTRF probe 23 nM; 60 min at room temperature; read-out: IC50 for Inhibition of RIPK3
Sequence (Q9Y572 whole entry, species assumed): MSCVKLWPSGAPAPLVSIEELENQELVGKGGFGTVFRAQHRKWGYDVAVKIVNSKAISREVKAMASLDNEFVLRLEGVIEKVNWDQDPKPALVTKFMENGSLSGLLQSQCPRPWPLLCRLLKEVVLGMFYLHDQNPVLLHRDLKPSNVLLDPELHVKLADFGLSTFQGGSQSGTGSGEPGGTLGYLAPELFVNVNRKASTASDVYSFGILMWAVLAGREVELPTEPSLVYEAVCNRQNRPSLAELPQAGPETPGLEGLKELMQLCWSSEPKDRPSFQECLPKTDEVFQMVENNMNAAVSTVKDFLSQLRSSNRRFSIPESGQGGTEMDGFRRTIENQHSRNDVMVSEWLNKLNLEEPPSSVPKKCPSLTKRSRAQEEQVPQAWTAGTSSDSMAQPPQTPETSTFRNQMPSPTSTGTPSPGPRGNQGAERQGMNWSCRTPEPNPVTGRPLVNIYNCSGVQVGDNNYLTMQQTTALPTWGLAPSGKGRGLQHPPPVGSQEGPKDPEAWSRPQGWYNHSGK
pIC50: −log10 of the molar value.
readout_type: pIC50

>>> experimental_result("Cc1cc(Cn2c3c(c(-c4ccc(F)cc4)c2-c2ccncc2)C(=O)NCC3)ccc1F [Example 46]")
"> 7.52"
>>> experimental_result("N#Cc1cc(F)ccc1Cn1c2c(c(-c3ccc(F)cc3)c1-c1ccncc1)C(=O)NCC2 [Example 34]")
"> 7.52"
>>> experimental_result("N#Cc1cc(F)ccc1Cn1c2c(c(-c3ccsc3)c1-c1ccncc1)C(=O)NCC2 [Example 128]")
"> 7.52"
>>> experimental_result("Cc1nc(Cn2c3c(c(-c4ccc(F)cc4)c2-c2ccncc2)C(=O)NCC3)no1 [Example 81]")
"7.00 to 7.51"
>>> experimental_result("Cc1noc(C)c1Cn1c2c(c(-c3ccc(F)cc3)c1-c1ccncc1)C(=O)NCC2 [Example 50]")
"4.82 to 7.00"
>>> experimental_result("Cc1csc(-c2c3c(n(Cc4ccc(F)cc4C#N)c2-c2ccncc2)CCNC3=O)c1 [Example 142]")
"> 7.52"
>>> experimental_result("Cc1cc(Cn2c3c(c(-c4cccc(CCC5CCCCC5)c4)c2-c2ccncc2)C(=O)NCC3)n(C)n1 [Example 181]")
"4.82 to 7.00"
>>> experimental_result("O=c1[nH]ccc2c1c(-c1ccc(F)cc1)c(-c1ccncc1)n2Cc1ccc(C(F)(F)F)cc1F [Example 157]")
"> 7.52"
>>> experimental_result("N#Cc1cc(F)ccc1Cn1c2c(c(-c3cccnc3)c1-c1ccnc(Cl)c1)C(=O)NCC2 [Example 11]")
"4.82 to 7.00"
>>> experimental_result("Cc1cc(Cn2c3c(c(-c4cccc(NC(=O)c5ccccc5)c4)c2-c2ccncc2)C(=O)NCC3)n(C)n1 [Example 176]")
"4.82 to 7.00"
>>> experimental_result("O=C1NCCc2c1c(-c1ccc(F)cc1)c(-c1ccncc1)n2CC1CCCC1 [Example 78]")
"> 7.52"
>>> experimental_result("COCC(=O)Nc1cc(-c2c(-c3ccc(F)cc3)c3c(n2Cc2ccc(C(F)(F)F)cc2F)CCNC3=O)ccn1 [Example 150]")
"7.00 to 7.51"
>>> experimental_result("O=C1NCCc2c1c(-c1ccc(F)cc1)c(-c1ccncc1)n2CCO [Example 82]")
"4.82 to 7.00"
>>> experimental_result("CCC(C)n1c2c(c(-c3ccc(F)cc3)c1-c1ccncc1)C(=O)NCC2 (stereo not shown) [Example 63]")
"4.82 to 7.00"
>>> experimental_result("N#Cc1ccc(Cn2c3c(c(-c4ccc(F)cc4)c2-c2ccncc2)C(=O)NCC3)cc1F [Example 35]")
"7.00 to 7.51"
>>> experimental_result("COc1cnccc1-c1c(-c2ccc(F)cc2)c2c(n1Cc1ccc(F)cc1C#N)CCNC2=O [Example 15]")
"7.00 to 7.51"
